tested on: HCV replicon; experiment: Replicon based assay of HCV replication inhibition (NPT ELISA); assay type: cell-based, Hepatitis C virus; conditions: Hepatitis C virus, replicon based assay of HCV replication inhibition; Table IV; read-out: Activity
Exercise: state measured EC50 for each of the compounds provided.

Below are worked cases with known answers.
// query Reported EC50, compound CCCCCCCCOc1ccc(Nc2nc(-c3cccnc3)c(C#N)s2)cc1C(F)(F)F : ____
// result 1000 to 10000 nM

// query Let us now turn to CCCCCCCCOc1ccc(Nc2nc(C(=O)CSC3=NC(=O)CC(=O)N3)cs2)cc1C(F)(F)F
// result < 1000 nM

// query Let us now turn to Cc1ccnc(-c2csc(Nc3ccc(OCC4CCCCC4)c(C(F)(F)F)c3)n2)c1
// result < 1000 nM

Return reported EC50 values for all items listed beneath this line.
1. Cc1sc(Nc2ccc(OCCCc3ccccc3)c(C(F)(F)F)c2)nc1-c1cccnc1
2. Cc1ccc2nc(Nc3nc(-c4cccnc4)cs3)sc2c1
3. Cc1nc2cc(Nc3nc(-c4cccnc4)cs3)ccc2s1
4. CCCCCCCCOc1ccc(Nc2nc(-c3ccc(O)nc3)cs2)cc1C(F)(F)F
5. c1ccc(CCCOc2ccc(Nc3nc(-c4cccnc4)cs3)cc2)cc1
6. O=S1(=O)CCN(Cc2ccc(Nc3nc(-c4cccnc4)cs3)cc2)CC1
7. COc1ncc(-c2csc(Nc3ccc4ccn(Cc5ccc(F)cc5)c4c3)n2)cn1

// result
1: < 1000 nM; 2: > 10000 nM; 3: > 10000 nM; 4: < 1000 nM; 5: < 1000 nM; 6: > 10000 nM; 7: < 1000 nM

---

Exercise: state measured EC50 for each of the compounds provided.
test system: HCV replicon; test: Replicon based assay of HCV replication inhibition (NPT ELISA); assay type: cell-based, Hepatitis C virus; conditions: Hepatitis C virus, Huh-7, 72 h, Table III; Huh-7 HCV replicon-containing cells, three days; read-out: Activity

Return reported EC50 values for all items listed beneath this line.
1. CCCCCCCCOc1ccc(Nc2nc(-c3ccc(-c4ccccn4)s3)cs2)cc1C(F)(F)F [compound 588]
2. CCCC(CCC)Oc1ccc(Nc2nc(-c3cccnc3)cs2)cc1C(F)(F)F [compound 680]
3. CCCCCCCc1ccc(Nc2nc(Cc3cccc(F)c3)cs2)cc1 [compound 519]
4. CN1CCN(CCCOc2ccc(Nc3nc(-c4cccnc4)cs3)cc2C(F)(F)F)CC1 [compound 694]
5. CCCCCCCCOc1ccc(Nc2nc(-c3cnccn3)cs2)cc1 [compound 598]

// result
1. < 1000 nM
2. < 1000 nM
3. 1000 to 10000 nM
4. 1000 to 10000 nM
5. < 1000 nM

Return reported EC50 values for all items listed beneath this line.
1. CCCCCOc1ccc(Nc2nc(Cc3ccc(F)c(F)c3)cs2)cc1C(F)(F)F [compound 607]
2. CCCCCCCCOc1ccc(Nc2nc(-c3ccc(-c4csnn4)cc3)cs2)cc1C(F)(F)F [compound 668]
3. CCCCCOc1ccc(Nc2nc(-c3ccc(F)nc3)cs2)cc1F [compound 527]
4. CCCCCCCCOc1ccc(Nc2nc(-c3ccc(N)nc3)cs2)cc1C(F)(F)F [compound 679]

// result
1: 1000 to 10000 nM; 2: < 1000 nM; 3: < 1000 nM; 4: < 1000 nM

---

Exercise: state measured EC50 for each of the compounds provided.
test system: HCV replicon; assay: Replicon based assay of HCV replication inhibition (NPT ELISA); assay type: cell-based, Hepatitis C virus; conditions: Hepatitis C virus, replicon based assay of HCV replication inhibition; Table IV; read-out: Activity

Below are worked cases with known answers.
// query Reported EC50, compound CCCCCCCCOc1ccc(Nc2nc(-c3cccnc3C#N)cs2)cc1C(F)(F)F : ____
// result < 1 µM

// query Let us now turn to Fc1cc(Nc2nc(-c3cccnc3)cs2)ccc1OCCCc1ccco1
// result < 1 µM

// query Let us now turn to FC(F)(F)c1cc(Nc2nc(-c3cncnc3-c3ccccc3)cs2)ccc1OCC1CCCCC1
// result 1 to 10 µM

// query Let us now turn to FC(F)(F)c1cc(Nc2nc(-c3cccnc3)cs2)ccc1Cl
// result < 1 µM

Return reported EC50 values for all items listed beneath this line.
1. Cc1sc(Nc2ccc(OCC3CCCCC3)c(C(F)(F)F)c2)nc1-c1cccnc1
2. Cc1ccc(Nc2nc(-c3cccnc3)cs2)cc1C(F)(F)F
3. NC(=O)c1sccc1-c1csc(Nc2ccc(OCC3CCCCC3)c(F)c2)n1
4. CCOC(=O)Cc1ccc(-c2csc(Nc3ccc(OCCCCc4ccccc4)c(C(F)(F)F)c3)n2)s1
5. FC(F)(F)c1cc(Nc2nc(-c3cccnc3)cs2)ccc1OCCCc1cccnc1
6. O=C(O)Cc1ccc(-c2csc(Nc3ccc(OCCCCc4ccccc4)c(F)c3)n2)s1
7. CCOC(=O)Cc1ccc(-c2csc(Nc3ccc(OCCOc4ccccc4)c(C(F)(F)F)c3)n2)s1
8. Cc1cc(Nc2nc(-c3cccnc3)cs2)ccc1OCCCCc1ccccc1

// result
< 1 µM
< 1 µM
< 1 µM
1 to 10 µM
< 1 µM
< 1 µM
1 to 10 µM
< 1 µM

Return reported EC50 values for all items listed beneath this line.
1. CCOC(=O)Cc1ccc(-c2csc(Nc3ccc(OCCCc4ccco4)c(C(F)(F)F)c3)n2)s1
2. CCCCCCCCN(C)c1ccc(Nc2nc(-c3cccnc3)c(C)s2)cc1C(F)(F)F
3. Cc1c(Nc2nc(-c3cccnc3)cs2)cccc1C(F)(F)F

// result
< 1 µM
< 1 µM
1 to 10 µM

Return reported EC50 values for all items listed beneath this line.
1. CCOC(=O)Cc1ccc(-c2csc(Nc3ccc(OCCCCc4ccccc4)c(F)c3)n2)s1
2. c1ccc(-c2nc3cc(Nc4nc(-c5cccnc5)cs4)ccc3o2)cc1
3. FC(F)(F)c1ccc(-c2csc(Nc3ccc(OCC4CCCCC4)c(C(F)(F)F)c3)n2)nc1

// result
["1 to 10 µM", "< 1 µM", "< 1 µM"]

Return reported EC50 values for all items listed beneath this line.
1. CCCCCCCCOc1ccc(Nc2nc(-c3ccc(CNC(=O)OC(C)(C)C)nc3)cs2)cc1C(F)(F)F
2. CC(C)(C)c1csc(Nc2nc(-c3cccnc3)cs2)n1
3. Cc1cc(C)c(Nc2nc(-c3cccnc3)cs2)c(C)c1

// result
1. < 1 µM
2. > 10 µM
3. > 10 µM

---

System: HCV replicon
Assay: Replicon based assay of HCV replication inhibition (NPT ELISA)
Assay type: cell-based, Hepatitis C virus
Settings: Hepatitis C virus, replicon based assay of HCV replication inhibition; Table IV; read-out: Activity
Experimental: Compounds claimed herein are tested for the ability to inhibit viral replication of the Hepatitis C replicon in cultured cells in which the HCV replicon construct has been incorporated. […] In this assay HCV replicon containing cells are treated with different concentrations of the test compound to ascertain the ability of the test compound to suppress replication of the HCV replicon. […] The NPT level of each sample is measured using a captured ELISA. […]
Exercise: state measured EC50 for each of the molecules provided.

// query Tell me reported EC50 for c1ccc(Oc2ccc(Nc3nc(-c4cccnc4)cs3)cn2)cc1 , tested with HCV replicon.
// result 1000 to 10000 nM

// query Let us now turn to FC(F)(F)c1cc(Nc2nc(-c3cccnc3)cs2)ccc1OCCCOc1ccccc1
// result < 1000 nM

// query Let us now turn to Fc1c(Nc2nc(-c3cccnc3)cs2)cccc1C(F)(F)F
// result 1000 to 10000 nM

Return reported EC50 values for all items listed beneath this line.
1. O=C(O)Cc1ccc(-c2csc(Nc3ccc(OCCCc4ccco4)c(C(F)(F)F)c3)n2)s1
2. c1ccc(-c2nsc(Nc3nc(-c4cccnc4)cs3)n2)cc1
3. CCCCCCCCOc1ccc(Nc2nc(-c3cccn3C)cs2)cc1C(F)(F)F
4. O=c1[nH]c2ccc(-c3csc(Nc4ccc(OCC5CCCCC5)c(F)c4)n3)cc2c(=O)o1

// result
["< 1000 nM", "> 10000 nM", "< 1000 nM", "1000 to 10000 nM"]

Return reported EC50 values for all items listed beneath this line.
1. CCCCCCCCOc1ccc(Nc2nc(-c3csc4nccn34)cs2)cc1C(F)(F)F
2. CCN(CC)CCOC(=O)c1ccc(Nc2nc(-c3cccnc3)cs2)cc1
3. Fc1cc(Nc2nc(-c3cccnc3)cs2)ccc1OCCCCc1ccccc1
4. CCCCCCCCOC(=O)c1ccc(Nc2nc(-c3cnc(OC)nc3)cs2)cc1C(F)(F)F
5. COc1ncc(-c2csc(Nc3ccc(C(=O)N4CCC5CCCCC5C4)c(C(F)(F)F)c3)n2)cn1 (stereo not shown)
6. OCCc1ccc(-c2csc(Nc3ccc(OCC4CCCCC4)c(F)c3)n2)cc1

// result
1: < 1000 nM; 2: > 10000 nM; 3: < 1000 nM; 4: < 1000 nM; 5: 1000 to 10000 nM; 6: 1000 to 10000 nM
